- System: LOX IMVI melanoma
- testSummary: NCI-60 one-dose screen, 48 h (100 = growth as untreated, 0 = no growth, -100 = all killed)
- measurementParameters: 10 µM
The panel holds about 83,000 compounds, 20% with a hit somewhere; the sample as a whole holds those more often.
Kind request: treat 90% as inclusive, so growth at 90% or higher is Yes, anything lower is No.

Study these solved cases before continuing.
COc1ccccc1C1OC2=Nc3cc(C)c(C)cc3NC2C1=O (configuration not stated) = No
O=S(=O)(O)C(Nc1ccccc1)c1ccccc1 (configuration not stated) = Yes
O=S(=O)(O)CC(O)CN1CCN(CCO)CC1 (configuration not stated) = Yes
Cc1cccc([N+](=O)[O-])c1Cl = Yes
COc1ccc(-c2cc3c(nn2)-c2ccccc2C3=O)cc1 = No
CC1OC(Oc2c(-c3ccc(O)c(O)c3)oc3cc(O)cc(O)c3c2=O)C(O)C(O)C1O (configuration not stated) = Yes

Here is the next item to consider.
Is the recorded value of growth equal to or greater than 90% for this compound? "C1CNC(C2=NCCN2)=N1"
Yes

---

- Tested on: HCT-116 colon
- testSummary: NCI-60 one-dose screen, 48 h
- measurementParameters: 10 µM
About 83,000 compounds went through this panel and 20% of them were active in at least one assay; those are over-represented in the sample as a whole. Calls of active or inactive are those of the source. How the source made its calls: active means growth percent below 10; inactive means the rest.
Write down one outcome, taken from active, inactive

Cc1ccc(C(=O)N/N=C/c2ccc3c(c2)OCO3)cc1 = inactive
COC(=O)/C=C/C(=O)NC(N)=O = inactive
c1cc2cccc3c4cccc5cccc(c(c1)c23)c54 = inactive
CCOC(=O)C1=C(Nc2ccc(Br)cc2)C(=O)N(CC)C1 = inactive

I'd appreciate the recorded outcome for "CC(C)=NNc1ccc([N+](=O)[O-])cc1[N+](=O)[O-]" from this test.
inactive

I'd appreciate the recorded outcome for "CN(C)C(C)(C)CC(C)(C)C" from this test.
inactive

---

- System: HCT-15 colon
- testSummary: NCI-60 one-dose screen, 48 h (100 = growth as untreated, 0 = no growth, -100 = all killed)
- measurementParameters: 10 µM
This is part of a sample that, as a whole, favours compounds with a hit. Of some 83,000 tested, about 20% had one in any assay.
Listed molecules paired with reported growth
Response body: numeric value in %, unit text excluded.

The cases that follow already have their growth on record.
CCOC(=O)C(O)C(O)C(=O)OCC (stereo not given) = 99.1
CNc1nc(NC)c2cn[nH]c2n1 = 101
COc1cccc(/C=N/NC(=S)NC2CC3CCC2C3)c1O (stereo not given) = 26.8
OC1OC(COC(c2ccccc2)(c2ccccc2)c2ccccc2)C(O)C(O)C1O (stereo not given) = 98.6
OCC(O)C(O)C(O)C(O)/C=N/O (stereo not given) = 105

# lookup: HCT-15 colon growth, key = "O=C1C=CC(=O)N1c1ccc(I)cc1Cl"
99.9

# lookup: HCT-15 colon growth, key = "Oc1ccc(N=Nc2ccc(Br)cc2)c(O)c1"
21.2

# lookup: HCT-15 colon growth, key = "CCCC(=O)c1cc(C)ccc1OC"
100

---

- System: UO-31 renal
- testSummary: NCI-60 one-dose screen, 48 h (100 = growth as untreated, 0 = no growth, -100 = all killed)
- measurementParameters: 10 µM
- Protocol: Growth inhibition of the UO-31 human tumor cell line is measured as a screen for anti-cancer activity. Cells are grown in 96 well plates and exposed to the test compound for 48 hours. Compounds are tested at a single concentration, which is 10^-5 M for most compounds. The reported endpoint is percent growth (GI% or GIPRCNT), where numbers from 0 - 100% represent growth inhibition, and numbers from -100% - 0 represent cell death. For example, a value of 40 represents 60% growth inhibition. […]
This is part of a sample that, as a whole, favours compounds with a hit. Of some 83,000 tested, about 20% had one in any assay.
Listed compounds paired with reported growth
Response body: numeric value in %, unit text excluded.

The cases that follow already have their growth on record.
O=C(O)C(c1ccccc1)C(O)c1ccccc1 (stereo not given) = 94.4
S=C(Nc1ccccc1)N1CCCCC1 = 88.4
NCCC(=O)c1ccc(Cl)cc1 = 85.7
NC(=S)NN=C1CCCC1 = 63.2
O=C1C=C(Nc2ccc([N+](=O)[O-])cc2)c2ccccc2C1=O = 30
O=[N+]([O-])c1ccc(/C=C/C=C/c2ccccc2)c(Cl)c1 = 92.8

We next turn to a different compound, shown below.
# lookup: UO-31 renal growth, key = CC1CC(O)CC(C)(C)C1 (stereo not given)
85.6

---

- System: CCRF-CEM leukemia
- testSummary: NCI-60 one-dose screen, 48 h (100 = growth as untreated, 0 = no growth, -100 = all killed)
- measurementParameters: 10 µM
The panel holds about 83,000 compounds, 20% with a hit somewhere; the sample as a whole holds those more often. The source made the active and inactive calls. How the source made its calls: active means growth percent below 10; inactive means the rest.
measurementType: growth

O=S(=O)(O)CC(O)CN1CCN(CCO)CC1 (stereo not drawn) = 103% (inactive)

In one line, give reported growth of the entry "COC(=O)c1[nH]c(=O)c(C#N)c(C(=O)OC)c1C(=O)c1ccccc1" .
105% (inactive)

In one line, give reported growth of the entry "Oc1ccc(N=Nc2ccc(Br)cc2)c(O)c1" .
-20% (active)

In one line, give reported growth of the entry "CCCCC1C(=O)N(c2ccccc2)N(c2ccccc2)C1=O" .
95.8% (inactive)

---

- Tested on: LOX IMVI melanoma
- testSummary: NCI-60 one-dose screen, 48 h
- measurementParameters: 10 µM
About 83,000 compounds went through this panel and 20% of them were active in at least one assay; those are over-represented in the sample as a whole. Calls of active or inactive are those of the source. The calls were made as follows: active = growth percent below 10; inactive = the rest.
Write down one outcome, taken from True = active, False = inactive

COc1ccccc1NC(=O)C1=C(C)NC(C)=C(C(=O)Nc2ccccc2OC)C1c1cccc([N+](=O)[O-])c1 = False
C/C(=N/NC(N)=O)c1ccco1 = False
COC(=O)c1ccc(C(C)C)cc1 = False
COC(=O)c1cccc(Br)c1 = False
O=[N+]([O-])c1cccc2nsnc12 = False

I'd appreciate the recorded outcome for "c1ccc(Sc2ccccc2)cc1" from this test.
False

I'd appreciate the recorded outcome for CC(=O)OCC1CCCO1 (stereo not given) from this test.
False

I'd appreciate the recorded outcome for "Cc1cc(N)c(S(=O)(=O)O)c(N)c1" from this test.
False

I'd appreciate the recorded outcome for CCN(CC)CCCC(C)Nc1ccnc(/C=C/c2ccc(Cl)cc2)c1 (stereo not given) from this test.
True

I'd appreciate the recorded outcome for OC(c1ccccn1)C(O)c1ccccn1 (stereo not given) from this test.
False

---

- Test system: NCI-H322M lung
- testSummary: NCI-60 one-dose screen, 48 h (100 = growth as untreated, 0 = no growth, -100 = all killed)
- measurementParameters: 10 µM
This is part of a sample that, as a whole, favours compounds with a hit. Of some 83,000 tested, about 20% had one in any assay.
Listed compounds paired with reported growth
Response body: numeric value in %, unit text excluded.

CCCC(C)OCC(=O)O (stereo unspecified) = 96.8
C=CCCCCCCCCCOC(C)=O = 102
CCNc1nc2c(cnn2C)c(=O)[nH]1 = 95.5
O=C(O)C(O)c1ccccc1 (stereo unspecified) = 99.6
CCOC(=O)c1ccc(Nc2sc(C(=O)c3cccc([N+](=O)[O-])c3)c(N)c2C#N)cc1 = 55

In one line, give reported growth of the entry "CCC(C#N)(CC)c1ccccc1" .
99.4

---

Listed molecules paired with reported growth
- System: HOP-92 NSCLC
- testSummary: NCI-60 one-dose screen, 48 h (100 = growth as untreated, 0 = no growth, -100 = all killed)
- measurementParameters: 10 µM
About 83,000 compounds went through this panel and 20% of them were active in at least one assay; those are over-represented in the sample as a whole.
Response body: numeric value in %, unit text excluded.

The cases that follow already have their growth on record.
O=C(Cc1nc2ccc([N+](=O)[O-])cc2nc1CC(=O)c1ccccc1)c1ccccc1 = 71.5
CC1CC(O)CC(C)(C)C1 (stereo not given) = 96.5
COCCOCCCl = 95

# lookup: HOP-92 NSCLC growth, key = CCCCCCCCCCC1CO1 (stereo not given)
89.7

# lookup: HOP-92 NSCLC growth, key = "Nc1ncnc2[nH]ncc12"
-21.4

# lookup: HOP-92 NSCLC growth, key = "Oc1ccc(Cc2ccccc2)c2cccnc12"
-0.901

# lookup: HOP-92 NSCLC growth, key = COc1ccc(C2OC(N)=C(O)C2=O)cc1OC (stereo not given)
98

# lookup: HOP-92 NSCLC growth, key = "O=C(CN1CCNCC1)N1CCOCC1"
103

# lookup: HOP-92 NSCLC growth, key = "O=C(Cc1nc2ccc([N+](=O)[O-])cc2nc1CC(=O)c1cccnc1)c1cccnc1"
69.8

# lookup: HOP-92 NSCLC growth, key = COc1cc(C2c3cc4c(cc3C3OC(=O)C2C3CO)OCO4)cc(OC)c1OC (stereo not given)
45.7

# lookup: HOP-92 NSCLC growth, key = "Cc1cc(NC(=O)CSCC(=O)O)no1"
107

# lookup: HOP-92 NSCLC growth, key = "CC(=O)OCC(=O)[C@@]1(O)CC[C@H]2[C@@H]3CC[C@@H]4C[C@H](O)CC[C@]4(C)[C@H]3C(=O)C[C@@]21C"
93.4

# lookup: HOP-92 NSCLC growth, key = "CC(=O)NC(N)=S"
89.7
